Biological target: human mAChR M1 (Homo sapiens)
Sequence (P11229 1-460): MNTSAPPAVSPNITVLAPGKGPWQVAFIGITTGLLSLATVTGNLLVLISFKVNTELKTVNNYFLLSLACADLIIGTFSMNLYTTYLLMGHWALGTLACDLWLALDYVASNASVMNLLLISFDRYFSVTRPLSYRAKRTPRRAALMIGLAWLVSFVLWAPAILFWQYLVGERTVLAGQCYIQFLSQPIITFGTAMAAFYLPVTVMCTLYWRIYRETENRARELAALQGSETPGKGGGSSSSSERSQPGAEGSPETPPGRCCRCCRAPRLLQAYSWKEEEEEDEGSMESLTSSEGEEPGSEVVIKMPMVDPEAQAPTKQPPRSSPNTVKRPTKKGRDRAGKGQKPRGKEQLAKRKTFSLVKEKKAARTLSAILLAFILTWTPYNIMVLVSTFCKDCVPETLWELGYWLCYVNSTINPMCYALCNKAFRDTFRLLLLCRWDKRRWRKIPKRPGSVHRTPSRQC
Test: mAChR M1 cell-based functional assay: calcium mobilization, positive allosteric modulator mode (increase in EC20 acetylcholine response)
Settings: Table 2; human M1; read-out: Human M1 EC50
outcome.measure: EC50 (nM)

[P] Cn1cc(-c2ccc(Cc3cc(C(=O)NCC4CCOC4)nc4ccsc34)cn2)cn1 (centres unmarked) [Compound 348]
[Q] O=C(NC1CCCCC1)c1cc(Cc2ccc(-c3cscn3)cc2)c2sccc2n1 [Compound 209]
[in] From the items above, decide which of P and Q has the lower EC50 reading. Give the chosen item's label as your response.
[out] P
(P: 128 nM, Q: 3890 nM)

[1] CCOC(c1ccc(C)nc1)c1cc(C(=O)N[C@@H]2CCCC[C@H]2O)nc2ccsc12 (some centres unmarked) [Compound 86]
[2] O=C(N[C@H]1CCOC[C@@H]1O)c1cc(Cc2c(F)cc(-c3cscn3)cc2F)c2sccc2n1 [Compound 270]
[3] Cc1csc2c(Cc3ccc(-c4ccn(C)n4)cc3)cc(C(=O)NC3CCOCC3)nc12 [Compound 302]
[4] Cn1ccc(-c2ccc(Cc3cc(C(=O)NCC4CCOC4)nc4ccn(C)c34)cn2)n1 (centres unmarked) [Compound 509]
[in] Sort ascending by EC50. Present the labels in the sequence the task asks for.
[out] 2, 1, 3, 4
(2: 39.7 nM, 1: 255 nM, 3: 405 nM, 4: 4320 nM)

[a] Cn1cc(-c2ccc(Cc3cc(C(=O)NC[C@@H]4CCCO4)nc4ccsc34)cn2)cn1 [Compound 349]
[b] O=C(NCC1CCO1)c1cc(Cc2ccc(-n3cccn3)cc2)c2sccc2n1 (centres unmarked) [Compound 284]
[in] From the items above, decide which of a and b has the lower EC50 reading. Give the chosen item's label as your response.
[out] a
(a: 25.4 nM, b: 67.7 nM)

Values compiled from patent US11111251B2.
